# Tested on: IGROV1 ovarian
# method: NCI-60 one-dose screen, 48 h (100 = growth as untreated, 0 = no growth, -100 = all killed)
# settings: 10 µM unless noted
The panel holds about 83,000 compounds, 20% with a hit somewhere; the sample as a whole holds those more often.
Measured growth of individual entries

{"compound": "CC(=O)c1ccc(Nc2nc(NCCO)nc(Nc3ccc(Cl)cc3)n2)cc1", "growth [%]": 98.7}
{"compound": "C[n+]1c2ccccc2nc2ccc(NCCO)cc21", "growth [%]": 63.9}
{"compound": "O=NN(C(=O)NC1CCC(C(=O)O)CC1)C1CCC(C(=O)O)CC1 (stereo unspecified)", "growth [%]": 107}
{"compound": "O=c1oc2ccc(F)cc2c(=O)n1-c1ccc(F)cc1F", "growth [%]": 30.1}
{"compound": "S=C1CCCC(=S)N1", "growth [%]": 107}
{"compound": "O=C1/C(=C/c2cccc(O)c2)COc2ccc(O)cc21", "growth [%]": 78.1}
